STUDY TARGET: Bio-His-FIKK13 (P. falciparum)
METHOD SUMMARY: SPR
OBSERVATION TYPE: Kd (µM)
Just the number please, in µM, no unit attached.

State, in one line, measured Kd of YPLRFLSKYHCG [FIKK13_4]
0.017
